- Species: Rattus norvegicus
- assay.method.text: Open TG-GATES - Regimen: Single
- Format: toxicity, organism-based, Sprague-Dawley
- Parameters: regimen Single, gender Male, age 6 weeks
- condition.summary: in vivo, po, 1000 mg/kg, 9 h, tissue Blood, route gavage, dose level High
Can you tell me MCH for the items I'm about to list?
Give just the number in pg; leave the unit off.

Prompt: Fill blank: measured MCH of the molecule CNC(=C[N+](=O)[O-])NCCSCc1ccc(CN(C)C)o1 [RANITIDINE] is ____.
Completion: 21.8

Prompt: Entry CN/C(=N/CCSCc1nc[nH]c1C)NC#N [CIMETIDINE] has what MCH?
Completion: 22.1

Prompt: Which MCH reading was recorded for the molecule COC(=O)C1=C(C)NC(C)=C(C(=O)OC)C1c1ccccc1[N+](=O)[O-] [NIFEDIPINE] ?
Completion: 20.8

Prompt: Look at this molecule and give its reported MCH. O=C(OC[C@H]1O[C@@H](OC(=O)c2cc(O)c(O)c(OC(=O)c3cc(O)c(O)c(O)c3)c2)[C@H](OC(=O)c2cc(O)c(O)c(OC(=O)c3cc(O)c(O)c(O)c3)c2)[C@@H](OC(=O)c2cc(O)c(O)c(OC(=O)c3cc(O)c(O)c(O)c3)c2)[C@@H]1OC(=O)c1cc(O)c(O)c(OC(=O)c2cc(O)c(O)c(O)c2)c1)c1cc(O)c(O)c(OC(=O)c2cc(O)c(O)c(O)c2)c1 [TANNIC ACID]
Completion: 22.3

Prompt: Looking for the measured MCH of Cc1nnc2n1-c1ccc(Cl)cc1C(c1ccccc1Cl)=NC2 [TRIAZOLAM] , can you help?
Completion: 20.9

====

- Species on record: Rattus norvegicus
- assay.method.text: Open TG-GATES - Regimen: Daily Repeat
- Format: toxicity, organism-based, Sprague-Dawley
- Design: regimen Daily Repeat, gender Male, age 6 weeks
- condition.summary: in vivo, po, 0 mg/kg, […], tissue Plasma, route gavage, dose level Control, time 7 day
observation.type: Na (meq/L)
Quick reminder: number only, in meq/L, skip the unit.

Prompt: For the compound shown here, Cc1nnc2n1-c1ccc(Cl)cc1C(c1ccccc1Cl)=NC2 , give the reported Na.
Completion: 141.8

Prompt: Given CN1C(=O)CCS(=O)(=O)C1c1ccc(Cl)cc1 (configuration not stated) , state its recorded Na.
Completion: 144

Prompt: # lookup: Na of O=C(OC[C@H]1O[C@@H](OC(=O)c2cc(O)c(O)c(OC(=O)c3cc(O)c(O)c(O)c3)c2)[C@H](OC(=O)c2cc(O)c(O)c(OC(=O)c3cc(O)c(O)c(O)c3)c2)[C@@H](OC(=O)c2cc(O)c(O)c(OC(=O)c3cc(O)c(O)c(O)c3)c2)[C@@H]1OC(=O)c1cc(O)c(O)c(OC(=O)c2cc(O)c(O)c(O)c2)c1)c1cc(O)c(O)c(OC(=O)c2cc(O)c(O)c(O)c2)c1
Completion: 137.8

Prompt: Returns the measured Na for the input compound. Input: CNC(=C[N+](=O)[O-])NCCSCc1ccc(CN(C)C)o1
Completion: 140.8

Prompt: Recorded Na of COC(=O)C1=C(C)NC(C)=C(C(=O)OC)C1c1ccccc1[N+](=O)[O-] , please.
Completion: 145.2

Prompt: Given the compound Nc1c2c(nc3ccccc13)CCCC2 , what is its reported Na?
Completion: 142

Prompt: For the compound shown here, CCCc1cc(=O)[nH]c(=S)[nH]1 , give the reported Na.
Completion: 139

====

- Organism: Rattus norvegicus
- assay.method.text: Open TG-GATES - Regimen: Single
- Type: toxicity, organism-based, Sprague-Dawley
- Parameters: regimen Single, gender Male, age 6 weeks
- condition.summary: in vivo, po, 300 mg/kg, 9 h, tissue Plasma, route gavage, dose level Middle
observation.type: PL (mg/dL)
Give just the number in mg/dL; leave the unit off.

Prompt: Fill blank: measured PL of the molecule O=C(OC[C@H]1O[C@@H](OC(=O)c2cc(O)c(O)c(OC(=O)c3cc(O)c(O)c(O)c3)c2)[C@H](OC(=O)c2cc(O)c(O)c(OC(=O)c3cc(O)c(O)c(O)c3)c2)[C@@H](OC(=O)c2cc(O)c(O)c(OC(=O)c3cc(O)c(O)c(O)c3)c2)[C@@H]1OC(=O)c1cc(O)c(O)c(OC(=O)c2cc(O)c(O)c(O)c2)c1)c1cc(O)c(O)c(OC(=O)c2cc(O)c(O)c(O)c2)c1 [TANNIC ACID] is ____.
Completion: 126.8

Prompt: Suppose we examine the molecule COC(=O)C1=C(C)NC(C)=C(C(=O)OC)C1c1ccccc1[N+](=O)[O-] [NIFEDIPINE] ; what PL value has been reported?
Completion: 156.4

Prompt: Quick one: PL of Cc1nnc2n1-c1ccc(Cl)cc1C(c1ccccc1Cl)=NC2 [TRIAZOLAM] ?
Completion: 144.2

Prompt: Can you look up the measured PL of CN/C(=N/CCSCc1nc[nH]c1C)NC#N [CIMETIDINE] for me?
Completion: 136

Prompt: // PL lookup, key: CNC(=C[N+](=O)[O-])NCCSCc1ccc(CN(C)C)o1 [RANITIDINE]
Completion: 143.8

====

- Organism: Rattus norvegicus
- assay.method.text: Open TG-GATES - Regimen: Single
- Type: toxicity, organism-based, Sprague-Dawley
- Set-up: regimen Single, gender Male, age 6 weeks
- condition.summary: in vivo, po, 0 mg/kg, 24 h, tissue Plasma, route gavage, dose level Control
observation.type: Na (meq/L)
Respond numerically; units are meq/L and should not be typed.

Prompt: So what does the record say about Na for CS(=O)(=O)O.Cc1ccc(NC(=O)c2ccc(CN3CCN(C)CC3)cc2)cc1Nc1nccc(-c2cccnc2)n1 [IMATINIB MESYLATE] ?
Completion: 142.7

Prompt: Query: Na; subject: CN/C(=N/CCSCc1nc[nH]c1C)NC#N [CIMETIDINE]
Completion: 140.2

Prompt: Entry CN(C)CCC(c1ccc(Cl)cc1)c1ccccn1 (stereo not drawn) [CHLORPHENIRAMINE] has what Na?
Completion: 143

Prompt: Record request: Na value, item Cc1nnc2n1-c1ccc(Cl)cc1C(c1ccccc1Cl)=NC2 [TRIAZOLAM]
Completion: 141.2

Prompt: What does the record list as Na for Nc1c2c(nc3ccccc13)CCCC2 [TACRINE] ?
Completion: 141.4

Prompt: For the compound COC(=O)C1=C(C)NC(C)=C(C(=O)OC)C1c1ccccc1[N+](=O)[O-] [NIFEDIPINE] , what Na is on record?
Completion: 145.6

Prompt: Recorded Na for Brc1ccccc1 [BROMOBENZENE] , please?
Completion: 141.4

Prompt: Given the entry CC(C)NNC(=O)c1ccncc1 [IPRONIAZID] , report its measured Na.
Completion: 142.6

Prompt: For CN1C(=O)CCS(=O)(=O)C1c1ccc(Cl)cc1 (stereo not drawn) [CHLORMEZANONE] , what is its reported Na?
Completion: 142

Prompt: GET /values?readout=Na&item= CNC(=C[N+](=O)[O-])NCCSCc1ccc(CN(C)C)o1 [RANITIDINE]
Completion: 140.6

Prompt: Entry under review: CCCc1cc(=O)[nH]c(=S)[nH]1 [PROPYLTHIOURACIL] . Reported Na?
Completion: 138.6

Prompt: For O=C(OC[C@H]1O[C@@H](OC(=O)c2cc(O)c(O)c(OC(=O)c3cc(O)c(O)c(O)c3)c2)[C@H](OC(=O)c2cc(O)c(O)c(OC(=O)c3cc(O)c(O)c(O)c3)c2)[C@@H](OC(=O)c2cc(O)c(O)c(OC(=O)c3cc(O)c(O)c(O)c3)c2)[C@@H]1OC(=O)c1cc(O)c(O)c(OC(=O)c2cc(O)c(O)c(O)c2)c1)c1cc(O)c(O)c(OC(=O)c2cc(O)c(O)c(O)c2)c1 [TANNIC ACID] , what is its reported Na?
Completion: 138.2

Prompt: Reported Na for NC1=NC(=O)C(c2ccccc2)O1 (stereo not drawn) [PEMOLINE] : what is it?
Completion: 141

====

Give measured APTT for each item. Keep answers brief.
- Organism: Rattus norvegicus
- assay.method.text: Open TG-GATES - Regimen: Daily Repeat
- Assay type: toxicity, organism-based, Sprague-Dawley
- Parameters: regimen Daily Repeat, gender Male, age 6 weeks
- condition.summary: in vivo, po, 0 mg/kg, […], tissue Blood, route gavage, dose level Control, time 14 day
Number first, unit second: that is the form wanted.

Prompt: # lookup: APTT of CN/C(=N/CCSCc1nc[nH]c1C)NC#N
Completion: 18.6 s

Prompt: Reported APTT for O=C(OC[C@H]1O[C@@H](OC(=O)c2cc(O)c(O)c(OC(=O)c3cc(O)c(O)c(O)c3)c2)[C@H](OC(=O)c2cc(O)c(O)c(OC(=O)c3cc(O)c(O)c(O)c3)c2)[C@@H](OC(=O)c2cc(O)c(O)c(OC(=O)c3cc(O)c(O)c(O)c3)c2)[C@@H]1OC(=O)c1cc(O)c(O)c(OC(=O)c2cc(O)c(O)c(O)c2)c1)c1cc(O)c(O)c(OC(=O)c2cc(O)c(O)c(O)c2)c1 : what is it?
Completion: 16 s

Prompt: What APTT value was documented for this compound, CCOc1ccc(NC(C)=O)cc1 ?
Completion: 17.5 s

Prompt: Query: APTT; subject: CNC(=C[N+](=O)[O-])NCCSCc1ccc(CN(C)C)o1
Completion: 20.1 s

Prompt: For COC(=O)C1=C(C)NC(C)=C(C(=O)OC)C1c1ccccc1[N+](=O)[O-] , what is its reported APTT?
Completion: 18.1 s

Prompt: Field request: APTT | item: Nc1c2c(nc3ccccc13)CCCC2
Completion: 23 s

Prompt: Given the compound CN(C)CCC(c1ccc(Cl)cc1)c1ccccn1 (stereo not drawn) , what is its reported APTT?
Completion: 20.3 s

Prompt: Given the entry Cc1nnc2n1-c1ccc(Cl)cc1C(c1ccccc1Cl)=NC2 , report its measured APTT.
Completion: 18.7 s

Prompt: Recorded APTT for CC(C)NNC(=O)c1ccncc1 , please?
Completion: 22.8 s

Prompt: Which APTT value is on record for NC1=NC(=O)C(c2ccccc2)O1 (stereo not drawn) ?
Completion: 17.8 s

Prompt: Field request: APTT | item: Brc1ccccc1
Completion: 15.8 s

Prompt: Using the record for CN1C(=O)CCS(=O)(=O)C1c1ccc(Cl)cc1 (stereo not drawn) , report its APTT.
Completion: 16.9 s

Prompt: Entry under review: CCCc1cc(=O)[nH]c(=S)[nH]1 . Reported APTT?
Completion: 16.2 s
